# procedureSummary: Tolerated maximum daily dose in mice, i.p. aqueous solutions
# Assay type: in vivo, Mäuse
# setupConditions: mouse, in vivo, ip, clear toxic effects only at higher doses, read-out: Maximaldosis p.die
readoutType: MTD (mg/kg/day)
State the answer as a number, implicitly in mg/kg/day.

Could you tell me which MTD is on file for O=c1n(CC2CO2)c(=O)n(CC2CO2)c(=O)n1CC1CO1 (single isomer, unassigned) [α-TGI, α-Triglycidylisocyanurat] ?
100

The origin of these recorded values is patent EP0014981A2.
